Biological target: T1, human CD20 on cells (human, UniProt P11836 1-297)
T1 sequence (looked up): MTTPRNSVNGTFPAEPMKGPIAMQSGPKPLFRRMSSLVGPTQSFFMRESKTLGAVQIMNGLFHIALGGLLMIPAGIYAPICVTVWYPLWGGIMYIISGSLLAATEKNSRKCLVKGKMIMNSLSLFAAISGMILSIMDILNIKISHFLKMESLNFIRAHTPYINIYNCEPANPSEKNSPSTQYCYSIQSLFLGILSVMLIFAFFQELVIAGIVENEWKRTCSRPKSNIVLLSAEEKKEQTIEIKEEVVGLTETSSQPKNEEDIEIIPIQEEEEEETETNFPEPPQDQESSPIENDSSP
Assay: cell-based or functional assay
Please provide measured IC50, xCELLigence human T cell mediated CHO-K1 CD20 killing assay, E:T 30:1, 44 h for the entries that follow.
// note: answer is a bare numeric in nM

Data request, read-out IC50, xCELLigence human T cell mediated CHO-K1 CD20 killing assay, E:T 30:1, 44 h, for T017000031 (bispecific antibody, TCR x CD20 bispecific Nanobody construct (cluster B); entry includes the FLAG3-HIS6 tag; also called T0170055C07-35GS-20CD019C07-FLAG3-HIS6) EVQLVESGGGLVQPGGSLRLSCITSGETFKINIWGWYRQAPGKQRELVASLTIGGATNYADSVKGRFTISEDSAKNTVYLQMNSLKPEDTAVYFCNAKSRLYPYDYWGQGTLVTVSSGGGGSGGGGSGGGGSGGGGSGGGGSGGGGSGGGGSEVQLVESGGGLVQPGGSLRLSCTFSGGTFSSYTMGWFRQAPGKEREFVAEVRWGGVTTYSNSLKDRFSISEDSVKNAVYLQMNSLKPEDTAVYYCAAVRQMYMTVVPDYWGQGTLVTVSSGAADYKDHDGDYKDHDIDYKDDDDKGAAHHHHHH 2.1

If you can, please state the reported IC50, xCELLigence human T cell mediated CHO-K1 CD20 killing assay, E:T 30:1, 44 h value of T017000038 (bispecific antibody, TCR x CD20 bispecific Nanobody construct (cluster C); entry includes the FLAG3-HIS6 tag; also called T0170061G01-35GS-20CD019C07-FLAG3-HIS6) EVQLVESGGGLVQPGGSLRLSCAASGEIGRINFYRWYRQAPGNQREVVATITIADKTDYADSAKGRFTISRDESRNMVYLQMSSLKPEDTAVYFCHAGSRLYPYDYWGQGTLVTVSSGGGGSGGGGSGGGGSGGGGSGGGGSGGGGSGGGGSEVQLVESGGGLVQPGGSLRLSCTFSGGTFSSYTMGWFRQAPGKEREFVAEVRWGGVTTYSNSLKDRFSISEDSVKNAVYLQMNSLKPEDTAVYYCAAVRQMYMTVVPDYWGQGTLVTVSSGAADYKDHDGDYKDHDIDYKDDDDKGAAHHHHHH . 4.1

Can you share its IC50, xCELLigence human T cell mediated CHO-K1 CD20 killing assay, E:T 30:1, 44 h? I mean this binder: T017000051 (bispecific antibody, CD20 x TCR bispecific Nanobody construct (cluster C); entry includes the FLAG3-HIS6 tag; also called 20CD019C07-35GS-T0170061G01-FLAG3-HIS6) EVQLVESGGGLVQPGGSLRLSCTFSGGTFSSYTMGWFRQAPGKEREFVAEVRWGGVTTYSNSLKDRFSISEDSVKNAVYLQMNSLKPEDTAVYYCAAVRQMYMTVVPDYWGQGTLVTVSSGGGGSGGGGSGGGGSGGGGSGGGGSGGGGSGGGGSEVQLVESGGGLVQPGGSLRLSCAASGEIGRINFYRWYRQAPGNQREVVATITIADKTDYADSAKGRFTISRDESRNMVYLQMSSLKPEDTAVYFCHAGSRLYPYDYWGQGTLVTVSSGAADYKDHDGDYKDHDIDYKDDDDKGAAHHHHHH 27

Find the recorded IC50, xCELLigence human T cell mediated CHO-K1 CD20 killing assay, E:T 30:1, 44 h belonging to T017000074 (bispecific antibody, TCR x CD20 bispecific Nanobody construct (cluster A); entry includes the FLAG3-HIS6 tag; also called T0170056G05-35GS-20CD019C07-FLAG3-HIS6) EVQLVESGGGLVQPGGSLRLSCVASGDVHKINFLGWYRQAPGKEREKVAHISIGDQTDYADSAKGRFTISRDESKNMVYLQMNSLKPEDTAVYFCRAFSRIYPYDYWGQGTLVTVSSGGGGSGGGGSGGGGSGGGGSGGGGSGGGGSGGGGSEVQLVESGGGLVQPGGSLRLSCTFSGGTFSSYTMGWFRQAPGKEREFVAEVRWGGVTTYSNSLKDRFSISEDSVKNAVYLQMNSLKPEDTAVYYCAAVRQMYMTVVPDYWGQGTLVTVSSGAADYKDHDGDYKDHDIDYKDDDDKGAAHHHHHH and report it. 1.5

Using the record for T017000076 (bispecific antibody, CD20 x TCR bispecific Nanobody construct (cluster A); entry includes the FLAG3-HIS6 tag; also called 20CD019C07-35GS-T0170056G05-FLAG3-HIS6) EVQLVESGGGLVQPGGSLRLSCTFSGGTFSSYTMGWFRQAPGKEREFVAEVRWGGVTTYSNSLKDRFSISEDSVKNAVYLQMNSLKPEDTAVYYCAAVRQMYMTVVPDYWGQGTLVTVSSGGGGSGGGGSGGGGSGGGGSGGGGSGGGGSGGGGSEVQLVESGGGLVQPGGSLRLSCVASGDVHKINFLGWYRQAPGKEREKVAHISIGDQTDYADSAKGRFTISRDESKNMVYLQMNSLKPEDTAVYFCRAFSRIYPYDYWGQGTLVTVSSGAADYKDHDGDYKDHDIDYKDDDDKGAAHHHHHH , report its IC50, xCELLigence human T cell mediated CHO-K1 CD20 killing assay, E:T 30:1, 44 h. 0.36

Using the record for T017000055 (bispecific antibody, entry includes the FLAG3-HIS6 tag; also called 20CD019C07-35GS-T0170055A02-FLAG3-HIS6) EVQLVESGGGLVQPGGSLRLSCTFSGGTFSSYTMGWFRQAPGKEREFVAEVRWGGVTTYSNSLKDRFSISEDSVKNAVYLQMNSLKPEDTAVYYCAAVRQMYMTVVPDYWGQGTLVTVSSGGGGSGGGGSGGGGSGGGGSGGGGSGGGGSGGGGSEVQLVESGGGLVQPGGSLRLSCAASGDVHKINILGWYRQAPAKEREMVAHITIGDATDYADSAKGRFTISRDEAKNMVYLQMNSLKPEDTAVYFCRAYSRIYPYNYWGQGTLVTVSSGAADYKDHDGDYKDHDIDYKDDDDKGAAHHHHHH , report its IC50, xCELLigence human T cell mediated CHO-K1 CD20 killing assay, E:T 30:1, 44 h. 1.4

Given the binder T017000042 (bispecific antibody, TCR x CD20 bispecific Nanobody construct (cluster A); entry includes the FLAG3-HIS6 tag; also called T0170055A02-35GS-20CD019C07-FLAG3-HIS6) EVQLVESGGGLVQPGGSLRLSCAASGDVHKINILGWYRQAPAKEREMVAHITIGDATDYADSAKGRFTISRDEAKNMVYLQMNSLKPEDTAVYFCRAYSRIYPYNYWGQGTLVTVSSGGGGSGGGGSGGGGSGGGGSGGGGSGGGGSGGGGSEVQLVESGGGLVQPGGSLRLSCTFSGGTFSSYTMGWFRQAPGKEREFVAEVRWGGVTTYSNSLKDRFSISEDSVKNAVYLQMNSLKPEDTAVYYCAAVRQMYMTVVPDYWGQGTLVTVSSGAADYKDHDGDYKDHDIDYKDDDDKGAAHHHHHH , what is its reported IC50, xCELLigence human T cell mediated CHO-K1 CD20 killing assay, E:T 30:1, 44 h? 4.2

Suppose we examine the binder T017000068 (bispecific antibody, CD20 x TCR bispecific Nanobody construct (cluster B); entry includes the FLAG3-HIS6 tag; also called 20CD019C07-35GS-T0170055C07-FLAG3-HIS6) EVQLVESGGGLVQPGGSLRLSCTFSGGTFSSYTMGWFRQAPGKEREFVAEVRWGGVTTYSNSLKDRFSISEDSVKNAVYLQMNSLKPEDTAVYYCAAVRQMYMTVVPDYWGQGTLVTVSSGGGGSGGGGSGGGGSGGGGSGGGGSGGGGSGGGGSEVQLVESGGGLVQPGGSLRLSCITSGETFKINIWGWYRQAPGKQRELVASLTIGGATNYADSVKGRFTISEDSAKNTVYLQMNSLKPEDTAVYFCNAKSRLYPYDYWGQGTLVTVSSGAADYKDHDGDYKDHDIDYKDDDDKGAAHHHHHH ; what IC50, xCELLigence human T cell mediated CHO-K1 CD20 killing assay, E:T 30:1, 44 h value has been reported? 13
